targetDesc: Sentrin-specific protease 8 (Homo sapiens, UniProt Q96LD8)
Sequence (Q96LD8 whole entry): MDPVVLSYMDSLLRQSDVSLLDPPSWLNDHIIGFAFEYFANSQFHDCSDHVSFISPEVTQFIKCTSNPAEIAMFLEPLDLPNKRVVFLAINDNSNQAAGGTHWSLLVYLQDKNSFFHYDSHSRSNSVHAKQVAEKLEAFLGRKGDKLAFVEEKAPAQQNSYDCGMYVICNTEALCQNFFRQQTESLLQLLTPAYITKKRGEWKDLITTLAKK
Format: functional
Calls of active or inactive are those of the source.
Thanks in advance; please answer with one of these: class 1 = active, class 0 = inactive

Outcome logged for CCS(=O)(=O)N1CCCC(C(=O)N2CCc3ccccc3C2)C1 (stereo not drawn) in this assay:
class 0

Recorded test call requested for Cc1ccc(C(=O)N2C(=S)C(c3ccc(F)cc3)=NC23CCN(C)CC3)cc1
class 0

What call does the record list for CN1CCN(CC(=O)n2c3c(c4ccccc42)CCCC3)CC1 ?
class 0

Which outcome was entered for the compound COC(=O)CCC(=O)OC1(C)C(=O)C=C2C=C3CCCN3C=C2C1=O (stereo not drawn) in this test?
class 1

For this compound, state the assay outcome: Cc1c(NC(=O)C(C)OC(=O)c2ccc([N+](=O)[O-])s2)c(=O)n(-c2ccccc2)n1C (stereo not drawn)
class 1

Recorded call for CN(c1ccc(C(=O)N2CCc3ccccc3C2)cc1)S(C)(=O)=O ?
class 0

Recorded call for NC(=S)NNc1cccc2cccnc12 ?
class 1

Recorded test outcome, item COc1cc(Br)c(C(=O)c2nccc3cc(OC)c(OC)cc23)cc1OC
class 1
